These data points were gathered from patent US20210238192A1.

target: UniProt:P27338; experiment: MAO-B inhibition (Amplex Red continuous fluorescence assay); format: biochemical; conditions: 30 min pre-incubation at room temp; substrate benzylamine; read-out: Human MAO-B IC50
Counter-ions that a name gives are not always drawn.
IC50 values for the compounds below.

{"columns": ["COMPOUND", "IC50"],
 "data": [
  ["Cn1ccc(-c2ccc(OC/C(=C/F)CN)cc2)n1 [Compound 50, hydrochloride]", "< 3 µM"],
  ["CC(C)(C)NC(=O)c1ccc(NC/C(=C/F)CN)cc1 [Compound 45, hydrochloride]", "< 3 µM"],
  ["CC(=O)N(CC(=CF)CN)Cc1ccccc1", "> 10 µM"],
  ["CC(C)(C)NC(=O)c1ccc(NC/C(=C\\F)CN)cc1 [Compound 46, hydrochloride]", "< 3 µM"],
  ["NC/C(=C\\F)COc1ccc(-c2nc3ccccc3[nH]2)cc1 [Compound 10, hydrochloride]", "< 3 µM"]
]}

For the next question, use this compound.
Recorded IC50 (compound NC/C(=C\F)CNC1CCCCC1 ): 3 to 10 µM

###

IC50 values for the compounds below.
molecular target: Human MAO-B (Homo sapiens); assay: MAO-B inhibition (Amplex Red continuous fluorescence assay); type: biochemical; settings: 30 min pre-incubation at room temp; substrate benzylamine; read-out: Human MAO-B IC50
Structures can show the parent of a compound that is named as a salt.

Worked set:
{"columns": ["COMPOUND", "ASSAY VALUE"],
 "data": [
  ["NC/C(=C/F)CNC(=O)Nc1ccccc1 [Compound 72]", "> 10 µM"],
  ["CCNC(=O)Nc1ccc(OC/C(=C/F)CN)cc1 [Compound 7, hydrochloride]", "< 3 µM"],
  ["NC/C(=C/F)COc1cccc2c1OCO2 [Compound 16, hydrochloride]", "< 3 µM"],
  ["NC/C(=C/F)COc1ccc(-c2nccs2)cc1 [Compound 20, Hydrochloride]", "< 3 µM"],
  ["NC/C(=C/F)COc1ccc(-c2nnn[nH]2)cc1 [Compound 52, hydrochloride]", "> 10 µM"],
  ["NC/C(=C\\F)COc1cnc(N2CC[C@H](O)C2)nc1 [Compound 79]", "3 to 10 µM"],
  ["NC/C(=C\\F)COc1ccc(-c2ncco2)cc1 [Compound 25, hydrochloride]", "< 3 µM"],
  ["Cn1ccnc1-c1ccc(OC/C(=C/F)CN)cc1 [Compound 27]", "< 3 µM"],
  ["NC/C(=C/F)COc1ccc(-c2nc3ccccc3[nH]2)cc1 [Compound 11, hydrochloride]", "< 3 µM"],
  ["Cn1nccc1-c1ccc(OC/C(=C\\F)CN)cc1 [Compound 49, hydrochloride]", "< 3 µM"]
]}

Recorded IC50 (compound Cn1cnc(-c2ccc(OC/C(=C/F)CN)cc2)c1 [Compound 39] ): < 3 µM

Recorded IC50 (compound NC/C(=C\F)COc1ccc(-c2cocn2)cc1 [Compound 29, hydrochloride] ): < 3 µM

Recorded IC50 (compound NC/C(=C\F)COC(=O)Nc1ccccc1 [Compound 65] ): 3 to 10 µM

Recorded IC50 (compound NC/C(=C/F)COc1cccc2scnc12 [Compound 9, hydrochloride] ): < 3 µM

Recorded IC50 (compound NC/C(=C\F)COCc1cccs1 [Compound 41] ): < 3 µM

###

biological target: Human MAO-B (Homo sapiens, UniProt P27338); experiment: MAO-B inhibition (Amplex Red continuous fluorescence assay); assay type: biochemical; conditions: 30 min pre-incubation at room temp; substrate benzylamine; read-out: Human MAO-B IC50
Sequence (P27338 whole entry): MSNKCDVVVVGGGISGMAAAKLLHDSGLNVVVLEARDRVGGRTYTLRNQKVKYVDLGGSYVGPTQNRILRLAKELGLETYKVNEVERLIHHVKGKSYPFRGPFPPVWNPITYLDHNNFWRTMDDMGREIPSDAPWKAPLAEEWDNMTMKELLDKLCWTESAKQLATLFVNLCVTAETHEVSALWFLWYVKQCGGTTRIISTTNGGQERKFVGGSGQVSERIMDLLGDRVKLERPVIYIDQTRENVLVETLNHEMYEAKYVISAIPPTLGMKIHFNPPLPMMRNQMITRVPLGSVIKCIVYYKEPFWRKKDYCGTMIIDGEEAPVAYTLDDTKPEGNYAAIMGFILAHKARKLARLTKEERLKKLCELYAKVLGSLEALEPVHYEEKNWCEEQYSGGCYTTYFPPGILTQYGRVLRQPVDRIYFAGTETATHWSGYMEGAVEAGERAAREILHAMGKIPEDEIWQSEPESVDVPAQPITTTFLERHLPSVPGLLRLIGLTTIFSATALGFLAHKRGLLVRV
pIC50: −log10 of the molar value. Counter-ions that a name gives are not always drawn.
READOUT TYPE: pIC50

{"columns": ["COMPOUND", "STUDY SYSTEM", "pIC50"],
 "data": [
  ["NC/C(=C/F)Cn1ncc(-c2ccc(O)cc2)n1 [Compound 58, hydrochloride]", "Human MAO-B (Homo sapiens, UniProt P27338)", "> 5.52"],
  ["NC/C(=C\\F)CNC(=O)Nc1ccccc1 [Compound 71]", "Human MAO-B (Homo sapiens, UniProt P27338)", "< 5.00"]
]}

For the next question, use this compound.
Recorded pIC50 (compound Cn1nccc1-c1ccc(OC/C(=C/F)CN)cc1 [Compound 48, hydrochloride] ): > 5.52

###

IC50 values for the molecules below.
molecular target: Human MAO-A (Homo sapiens); test: MAO-A inhibition (Amplex Red continuous fluorescence assay); type: biochemical; settings: 30 min pre-incubation at room temp; substrate tyramine; read-out: Human MAO-A IC50
Where a name gives a salt, the structure may show the parent alone.

Worked set:
{"columns": ["MOLECULE", "IC50"],
 "data": [
  ["NC/C(=C\\F)Cn1ccc2ccccc21 [Compound 15, hydrochloride]", "< 3 µM"],
  ["NC/C(=C\\F)COc1ccc(-c2cnc[nH]2)cc1", "3 to 10 µM"],
  ["CCNC(=O)Nc1ccc(OC/C(=C/F)CN)cc1 [Compound 7, hydrochloride]", "3 to 10 µM"],
  ["NC/C(=C\\F)CNCc1ccccc1", "3 to 10 µM"]
]}

Hey, Human MAO-A (Homo sapiens) data for NC/C(=C\F)COc1ccc(C(=O)NCCCCCNC(=O)CCCCC2SCC3NC(=O)NC32)cc1 (centres unmarked) : IC50 came out at > 10 µM

Hey, Human MAO-A (Homo sapiens) data for NC/C(=C\F)CNS(=O)(=O)c1ccccc1 [Compound 17, hydrochloride] : IC50 came out at > 10 µM

Hey, Human MAO-A (Homo sapiens) data for CCNC(=O)N(C)c1ccc(NC/C(=C\F)CN)cc1 : IC50 came out at > 10 µM

Hey, Human MAO-A (Homo sapiens) data for NCC(=CF)CN1CCCCC1 (mixture of isomers) : IC50 came out at > 10 µM

###

IC50 values for the compounds below.
biological target: Human MAO-A (Homo sapiens); test: MAO-A inhibition (Amplex Red continuous fluorescence assay); assay type: biochemical; conditions: 30 min pre-incubation at room temp; substrate tyramine; read-out: Human MAO-A IC50
Counter-ions that a name gives are not always drawn.

Recorded IC50 (compound NC/C(=C\F)CNC(=O)c1ccccc1 [Compound 21, hydrochloride] ): 3 to 10 µM

Recorded IC50 (compound CC(=O)N(CC(=CF)CN)C1CCCCC1 (mixture of isomers) [Compound 31, hydrochloride] ): > 10 µM

Recorded IC50 (compound NC/C(=C\F)COc1ccc(-c2ncco2)cc1 [Compound 25, hydrochloride] ): 3 to 10 µM

###

target: Human MAO-A (Homo sapiens); assay: MAO-A inhibition (Amplex Red continuous fluorescence assay); format: biochemical; settings: 30 min pre-incubation at room temp; substrate tyramine; read-out: Human MAO-A IC50
pIC50: −log10 of the molar value. Where a name gives a salt, the structure may show the parent alone.
pIC50 values for the molecules below.

{"columns": ["MOLECULE", "READOUT TYPE", "ASSAY VALUE"],
 "data": [
  ["NC/C(=C\\F)COc1cccc2scnc12 [Compound 8, hydrochloride]", "pIC50", "> 5.52"],
  ["CC(=O)N(CC(=CF)CN)Cc1ccccc1", "pIC50", "< 5.00"],
  ["NC/C(=C\\F)COc1ccc(C(=O)NCCOCCOCCOCCOCCOCCOCCOCCOCCOCCOCCOCCNC(=O)CCCCC2SCC3NC(=O)NC32)cc1 (stereo not shown)", "pIC50", "< 5.00"],
  ["Cn1cnc(-c2ccc(OC/C(=C/F)CN)cc2)c1", "pIC50", "< 5.00"],
  ["NC/C(=C\\F)COc1ccc(-c2ncn[nH]2)cc1", "pIC50", "5.00 to 5.52"],
  ["NC/C(=C/F)COc1ccc(-c2ncccn2)cc1 [Compound 38, hydrochloride]", "pIC50", "> 5.52"]
]}

For the next question, use this molecule.
Recorded pIC50 (molecule NC/C(=C\F)COCc1ccccc1 [Compound 5, hydrochloride] ): > 5.52

###

IC50 values for the compounds below.
molecular target: Human MAO-A (Homo sapiens, UniProt P21397); test: MAO-A inhibition (Amplex Red continuous fluorescence assay); type: biochemical; conditions: 30 min pre-incubation at room temp; substrate tyramine; read-out: Human MAO-A IC50
Sequence (P21397 whole entry): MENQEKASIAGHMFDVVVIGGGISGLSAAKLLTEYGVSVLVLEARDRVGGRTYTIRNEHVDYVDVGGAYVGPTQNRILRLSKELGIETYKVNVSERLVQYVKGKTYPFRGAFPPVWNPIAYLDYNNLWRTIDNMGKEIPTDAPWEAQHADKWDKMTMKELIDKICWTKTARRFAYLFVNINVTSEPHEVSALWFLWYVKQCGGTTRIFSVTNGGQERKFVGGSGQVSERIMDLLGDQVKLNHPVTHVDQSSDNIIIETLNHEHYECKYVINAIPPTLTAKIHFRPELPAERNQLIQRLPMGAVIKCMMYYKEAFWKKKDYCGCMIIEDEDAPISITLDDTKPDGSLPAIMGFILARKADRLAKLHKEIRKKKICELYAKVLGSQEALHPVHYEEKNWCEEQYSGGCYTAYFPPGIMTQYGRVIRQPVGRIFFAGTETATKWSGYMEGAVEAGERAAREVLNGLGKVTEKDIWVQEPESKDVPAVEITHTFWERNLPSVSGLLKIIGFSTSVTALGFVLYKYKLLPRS
Structures can show the parent of a compound that is named as a salt.

Worked set:
{"columns": ["COMPOUND", "READOUT TYPE", "ASSAY VALUE"],
 "data": [
  ["NC/C(=C\\F)CNC1CCCCC1 [Compound 22]", "IC50", "> 10 µM"],
  ["NC/C(=C/F)COc1cccc2scnc12 [Compound 9, hydrochloride]", "IC50", "3 to 10 µM"]
]}

For the next question, use this compound.
Recorded IC50 (compound CCNC(=O)Oc1ccc(OC/C(=C\F)CN)cc1 [Compound 56] ): < 3 µM

###

target: Human MAO-B (Homo sapiens); experiment: MAO-B inhibition (Amplex Red continuous fluorescence assay); format: biochemical; details: 30 min pre-incubation at room temp; substrate benzylamine; read-out: Human MAO-B IC50
Counter-ions that a name gives are not always drawn.
IC50 values for the molecules below.

Worked set:
{"columns": ["MOLECULE", "IC50"],
 "data": [
  ["CC(C)(C)NC(=O)c1cn(CC(=CF)CN)c2ccccc12", "> 10 µM"],
  ["CO[C@H]1CCN(c2ncc(OC/C(=C/F)CN)cn2)C1", "> 10 µM"],
  ["Cn1ccc(-c2ccc(OC/C(=C\\F)CN)cc2)n1 [Compound 54, hydrochloride]", "< 3 µM"],
  ["NC/C(=C/F)COc1ccc(-c2ncc[nH]2)cc1", "> 10 µM"]
]}

Recorded IC50 (molecule NC/C(=C/F)COc1ccc(-c2ncccn2)cc1 [Compound 38, hydrochloride] ): < 3 µM

Recorded IC50 (molecule NC/C(=C\F)Cn1ccc2ccccc21 [Compound 15, hydrochloride] ): < 3 µM

Recorded IC50 (molecule NCC(=CF)COc1ccc(-c2cnn[nH]2)cc1 ): < 3 µM

Recorded IC50 (molecule NC/C(=C/F)COc1ccc(-c2cocn2)cc1 [Compound 30, hydrochloride] ): < 3 µM

Recorded IC50 (molecule NC/C(=C/F)COC(=O)Nc1ccccc1 ): < 3 µM
